Tested on: MOLT-4 leukemia
EXPERIMENTAL PROTOCOL: NCI tumour cell line growth inhibition, 48 h
VALUE KIND: TGI

Looking for the measured TGI of "C/C(CC(=O)Nc1cccc([N+](=O)[O-])c1)=N\NC(=O)C[n+]1ccccc1" , can you help? > 100 µM

Please give the result for "Nc1ccc(C(=O)/C=C/c2ccccc2O)cc1" too. > 100 µM

Please give the result for "O=C1CNN=C(Cn2nc(-c3ccccc3)c3ccccc3c2=O)N1" too. > 100 µM

Please give the result for "C=C(Cn1c2ccccc2c(=O)c2ccccc21)c1ccc(C(=O)Nc2ccccc2N)cc1" too. > 26 µM

Please give the result for CC1CC(C)C(C(O)CC2CC(=O)N(c3ccccc3)C(=O)C2)C(O)C1 (centres undefined) too. > 100 µM

Please give the result for "CCN(CC)CCOc1ccc2c(C)c(C(=O)OC)oc2c1C(=O)/C=C/c1ccc(OC)cc1" too. 6.58 µM

Please give the result for CC(CC=O)Nc1nn2c(=O)c3ccccc3nc2s1 (centres undefined) too. > 100 µM

Please give the result for "CCOc1ccc(Nc2nc(-c3c(C)nc4ncccn34)cs2)cc1" too. 20.4 µM

Please give the result for O=c1[nH]c2ccc([N+](=O)[O-])cc2nc1/C(=N/Nc1ccccc1)C(O)c1ccco1 (centres undefined) too. > 100 µM

Please give the result for "C[n+]1c(-c2ccc(/C=N/NC(=O)C(=O)N/N=C/c3ccc(-c4cn5ccccc5[n+]4C)cc3)cc2)cn2ccccc21" too. > 100 µM

Please give the result for "COc1cc(CCc2ccc(OC(C)=O)cc2)cc(OC)c1OC" too. > 100 µM

Please give the result for c1cncc(C2ONC3=NCCN32)c1 (centres undefined) too. 56.6 µM

Please give the result for "O=C(Oc1ccc2c(c1)CN(Cc1ccccc1)CO2)c1ccccc1" too. 54.1 µM

Please give the result for "Cc1ccccc1Nc1nc2ccccc2nc1NS(=O)(=O)c1ccccc1" too. > 100 µM

Please give the result for "Oc1ccccc1C=Nc1nc(OCc2ccccc2)nc2[nH]ncc12" too. > 100 µM

Please give the result for "C#CC#CC#CC#CC#CC#CC#CC#CC[C@@H]1OC[C@@H](COC(=O)O[C@@H](C(=O)O[C@H]2C[C@@]3(O)[C@@H](OC(=O)c4ccccc4)[C@@H]4[C@]5(OC(C)=O)CO[C@@H]5C[C@H](O)[C@@]4(C)C(=O)[C@H](OC(C)=O)C(=C2C)C3(C)C)[C@@H](NC(=O)c2ccccc2)c2ccccc2)O1" too. > 33.3 µM

Please give the result for CC(NNC(=O)c1ccncc1)c1ccc(Cl)cc1Cl (centres undefined) too. > 100 µM

Please give the result for COC(=O)[C@]1(C)CCC[C@]2(C)[C@@H]1CCC13C[C@@H](C=CO1)[C@@H](C)CC32O (some centres undefined) too. > 100 µM

Please give the result for "C=CCOC(=O)N1c2ccc(O)cc2[C@@]23O[C@@]24[C@@H]1C#C/C=C\C#C[C@]3(O)C(=O)C[C@@H]4C" too. 49.4 µM
